# assay_explanation: Oral bioavailability in Sprague-Dawley rat at 5 mg/kg
# Assay type: ADME, organism-based
# experimental_conditions: in vivo
Mark Criterion not met for bioavailability values under 40%, and Criterion met for everything at or above.

// known answers, use as guide
- compound: "CC(=O)Nc1nc2c(Oc3cc(N4CCN([C@@H](C)c5ccc(F)cc5)CC4)ncn3)cccc2s1"
  classification: "Criterion met"
- compound: "CC(=O)Nc1nc2c(Oc3cc(N4CCN(C(C)c5ccc(C(F)(F)F)cc5)CC4)ncn3)cccc2s1 (stereo not given)"
  classification: "Criterion not met"
- compound: "CC(=O)Nc1nc2c(Oc3cc(-c4ccc(C(F)(F)F)cc4)ncn3)cccc2s1"
  classification: "Criterion not met"
- compound: "CC(=O)Nc1nc2c(Oc3cc(N4CCN(C(C)c5ccc(F)cc5)CC4)ncn3)cccc2s1 (stereo not given)"
  classification: "Criterion not met"

Consider the record given below.
## Task Would you say `CC(=O)Nc1nc2c(Oc3cc(N4CCN([C@H](C)c5ccc(F)cc5)CC4)ncn3)cccc2s1` shows bioavailability at minimum 40%?
## Result Criterion met
